Exercise: for every item that follows, state its recorded koff.
target: T1, CD137-hisFc fusion protein (Sino Biological Cat 10041-H03H) (human, UniProt Q07011 24-186); test: BLI Octet, Fab
T1 construct: Bought; also called recombinant human CD137 (fused with human Fc and His tag); not shown: His tag and human Fc
Field: numeric (s⁻¹). Do not append units.

stdin: Identify koff associated with the binder Fab 7128 (Fab, V domains shown, Fab from E. coli; also called VH54/VL54) VH: EVQLVESGGGLVQPGGSLRLSCAASGFSLSTGGVGVAWIRQAPGKGLEWVSYISGDGGTTYYADSVKGRFTISRDNSKNTLYLQLNSLRAEDTAVYYCAREGSDTVLGDWFAYWGQGTLVTVSS VL: DIQLTQSPSSLSASVGDRVTITCRASQGISSYLAWYQQKPGKAPKLLIYDASNLETGVPSRFSGSGSGTDFTLTISSLQPEDFATYYCQQSYSTPLTFGQGTKVEIKR
stdout: 0.0123

stdin: Identify koff associated with the binder Fab 5365 (Fab, V domains shown, Fab from E. coli; also called VH30/VL30) VH: EVQLVESGGGLVQPGGSLRLSCAASGFSLSTGGVGVGWIRQAPGKGLEWLALIDWADDKYYSPSLKSRLTISRDNSKNTLYLQLNSLRAEDTAVYYCARGGSDTVIGDWFAYWGQGTLVTVSS VL: DIQLTQSPSSLSASVGDRVTITCRASQSIGSYLAWYQQKPGKAPKLLIYDASNLETGVPSRFSGSGSGTDFTLTISSLQPEDFATYYCQQGYYLWTFGQGTKVEIKR
stdout: 0.00179

stdin: Identify koff associated with the binder Fab 5359 (Fab, V domains shown, Fab from E. coli; also called VH27/VL27) VH: EVQLVESGGGLVQPGGSLRLSCAASGFSLSTSGVGVGWIRQAPGKGLEWLALIDWADDKYYSPSLKSRLTISRDNSKNTLYLQLNSLRAEDTAVYYCARGGSDAVLGDWFAYWGQGTLVTVSS VL: DIQLTQSPSSLSASVGDRVTITCRASQGIGSYLAWYQQKPGKAPKLLIYDASNLETGVPSRFSGSGSGTDFTLTISSLQPEDFATYYCQQGYSIWTFGQGTKVEIKR
stdout: 0.00033

Values compiled from patent US20190055314A1.
